- target-system: human TrkA (Homo sapiens)
- Construct: purchased Lifetechnologies PV3144
- Sequence (P04629 33-796): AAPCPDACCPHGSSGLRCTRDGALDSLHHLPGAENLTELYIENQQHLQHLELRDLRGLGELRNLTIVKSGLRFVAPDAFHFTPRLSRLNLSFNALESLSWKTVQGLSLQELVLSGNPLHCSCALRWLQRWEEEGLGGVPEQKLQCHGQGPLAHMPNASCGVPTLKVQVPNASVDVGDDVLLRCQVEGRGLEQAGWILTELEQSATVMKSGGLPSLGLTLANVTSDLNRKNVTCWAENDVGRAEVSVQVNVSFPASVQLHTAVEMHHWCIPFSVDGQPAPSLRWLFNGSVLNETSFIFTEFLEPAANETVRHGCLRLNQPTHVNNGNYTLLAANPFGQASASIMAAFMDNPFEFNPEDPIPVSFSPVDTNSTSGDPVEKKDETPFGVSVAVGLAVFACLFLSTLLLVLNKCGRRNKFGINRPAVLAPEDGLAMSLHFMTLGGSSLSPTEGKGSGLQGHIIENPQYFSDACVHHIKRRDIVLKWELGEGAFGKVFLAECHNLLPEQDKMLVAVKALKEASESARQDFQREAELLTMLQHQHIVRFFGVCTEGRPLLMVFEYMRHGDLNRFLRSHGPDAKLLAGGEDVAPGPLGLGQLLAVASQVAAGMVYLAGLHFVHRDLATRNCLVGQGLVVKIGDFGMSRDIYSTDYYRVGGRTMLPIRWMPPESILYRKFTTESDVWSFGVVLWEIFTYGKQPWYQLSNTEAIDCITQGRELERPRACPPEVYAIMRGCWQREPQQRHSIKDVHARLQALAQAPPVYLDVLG
- experiment-summary: Test Example 2-2: Human TrkA Inhibition Assay
- Format: biochemical
- reported-conditions: human TrkA inhibition, class symbols A/B/C, read-out: IC50_nM
Entries and their IC50 values follow.

Entry under test: COCCC1C[C@@H](NC(=O)Nc2cc(-c3ccc(C(=O)O)cc3)nn2C)[C@H](c2ccccc2)C1 (stereo partly drawn) . Its IC50 was > 1000 nM

The reported IC50 of the molecule COCCC1C[C@@H](NC(=O)Nc2c(C)c(-c3ccc(C(=O)O)cc3)nn2-c2ccccc2)[C@H](c2ccccc2)C1 (stereo partly drawn) was < 100 nM

Query CCOc1nn(-c2ccccc2)c(NC(=O)N[C@@H]2CC(CCOC)C[C@H]2c2ccccc2)c1C (stereo partly drawn) [Compound I-212] yields IC50 of < 100 nM

Quick note, IC50 for COCCC1C[C@@H](NC(=O)Nc2c(C)c(-c3cnn(C)c3)nn2-c2ccccc2)[C@H](c2ccc(O)cc2)C1 (stereo partly drawn) landed at < 100 nM

Form field IC50, entry COCCN1C[C@@H](NC(=O)Nc2c(C)c(-c3cnn(C)c3)nn2-c2ccccc2)[C@H](c2ccnc(C#N)c2)C1 (racemic) : 100 to 1000 nM

Data point: COCCN1C[C@@H](NC(=O)Nc2c(C)c(-c3cnn(C)c3)nn2-c2ccccc2)[C@H](c2cccc(C=O)c2)C1 (racemic) ; IC50 = 100 to 1000 nM

CNC(=O)c1ccc(-c2cc(NC(=O)N[C@@H]3CC(CCOC)C[C@H]3c3ccccc3)n(C)n2)cc1 (stereo partly drawn) has a reported IC50 of > 1000 nM

For COCCC1C[C@@H](NC(=O)Nc2cc(-c3cnc(C)nc3)nn2C)[C@H](c2ccccc2)C1 (stereo partly drawn) the molecule record lists IC50 as > 1000 nM

Reported IC50 for C=C[C@@H]1C[C@@H](NC(=O)Nc2c(C)c(-c3cnn(C)c3)nn2-c2ccccc2)[C@H](c2ccc(F)c(F)c2)N1 was 100 to 1000 nM

// IC50 lookup, molecule = CCc1ccc(CN2C[C@@H](NC(=O)Nc3c(C)c(-c4cnn(C)c4)nn3-c3ccccc3)[C@H](c3ccc(F)c(F)c3)C2)o1 , result: 100 to 1000 nM

The molecule COCCC1C[C@@H](NC(=O)Nc2c(C)c(OCC(C)(C)O)nn2-c2ccccc2)[C@H](c2ccccc2)C1 (relative stereo) showed IC50 equal to 100 to 1000 nM

Entry COCC(O)[C@H]1C[C@@H](NC(=O)Nc2c(C)c(-c3cnn(C)c3)nn2-c2ccccc2)[C@H](c2ccc(F)c(F)c2)N1C (stereo partly drawn) ; IC50 = < 100 nM

Noted for COCCC1C[C@@H](NC(=O)Nc2cc(-c3ccc(C(=O)OC)cc3)nn2C)[C@H](c2ccccc2)C1 (relative stereo) : its IC50 reads > 1000 nM

The value of IC50 measured for the molecule Cc1c(-c2cnn(C)c2)nn(-c2ccccc2)c1NC(=O)N[C@@H]1CN(Cc2csc(Br)n2)C[C@H]1c1ccc(F)c(F)c1 turned out to be < 100 nM

Record COCC(C(=O)OC)[C@@H]1C[C@@H](NC(=O)Nc2c(C)c(-c3cnn(C)c3)nn2-c2ccccc2)[C@H](c2ccccc2)C1 (mixture of isomers) [Compound I-244] , field IC50: 100 to 1000 nM

Values from patent US10532985B2
